tested on: KM12 colon; experiment: NCI-60 one-dose screen, 48 h; conditions: 10 µM unless noted
The panel holds about 83,000 compounds, 20% with a hit somewhere; the sample as a whole holds those more often. Activity calls are given as the source filed them. The calls were made as follows: active = growth percent below 10; inactive = the rest.
Possible outcomes: TRUE = active, FALSE = inactive

- MOLECULE: "CC1(C)OB(O)c2cc(-c3nc4ccc5[nH]ncc5c4c4c3CCCC4)ccc21"
  SYSTEM_NAME: "KM12 colon"
  CLASS_NAME: "FALSE"
- MOLECULE: "N#CC1CCc2c(c(-c3ccc4nc(N)sc4c3)nc3ccc4[nH]ncc4c23)C1 (stereo not given)"
  SYSTEM_NAME: "KM12 colon"
  CLASS_NAME: "FALSE"
- MOLECULE: "O=C(Nc1cnc(Nc2ccc(N3CCOCC3)nc2)nc1Oc1ccc(C(F)(F)F)cc1)c1ccncc1"
  SYSTEM_NAME: "KM12 colon"
  CLASS_NAME: "FALSE"
- MOLECULE: "CN1CCN(Cc2ccc(NC(=O)c3cncc(C#Cc4cnc(N)c5ncccc45)c3)cc2C(F)(F)F)CC1"
  SYSTEM_NAME: "KM12 colon"
  CLASS_NAME: "TRUE"
- MOLECULE: "CCOc1ccc(-n2nc(C(=O)NCc3ccccc3OC)nc2-c2cc(OC)c(OC)c(OC)c2)cc1"
  SYSTEM_NAME: "KM12 colon"
  CLASS_NAME: "FALSE"
